This section presents compounds with their documented pEC50 values.
Target: SST2 (Homo sapiens)
Construct: host or cells: PathHunter CHO-K1 SST2 cells
Sequence (P30874 whole entry): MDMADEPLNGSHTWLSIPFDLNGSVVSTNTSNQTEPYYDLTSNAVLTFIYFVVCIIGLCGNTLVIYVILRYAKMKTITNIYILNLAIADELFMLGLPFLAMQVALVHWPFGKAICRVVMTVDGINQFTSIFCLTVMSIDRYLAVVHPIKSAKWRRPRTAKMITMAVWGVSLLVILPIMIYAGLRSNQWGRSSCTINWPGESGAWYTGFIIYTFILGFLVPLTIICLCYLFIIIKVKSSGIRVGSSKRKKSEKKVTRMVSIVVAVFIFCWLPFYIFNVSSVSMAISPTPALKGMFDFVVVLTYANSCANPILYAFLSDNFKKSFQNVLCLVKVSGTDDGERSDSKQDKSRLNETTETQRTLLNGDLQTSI
Experiment: PathHunter CHO-K1 SST2 Internalization Assay
Assay type: cell-based
Conditions: PathHunter CHO-K1 SST2 cells; 90 min at 37 C; luminescence; read-out: Internalization EC50
For clarity, pEC50 is expressed as the negative log10 of concentration in mol/L.

{"COMPOUND": "CC[C@H](C)[C@@H]([C@@H](CC(=O)N1CCCC1[C@H](OC)[C@@H](C)C(=O)N[C@H](C)[C@@H](O)c1ccccc1)OC)N(C)C(=O)[C@@H](NC(=O)[C@H](C(C)C)N(C)C(=O)OCc1ccc(NC(=O)[C@H](CCCNC(N)=O)NC(=O)[C@@H](NC(=O)CCOCCC(=O)N(C)CC(=O)NCCNc2ncc(-c3cc(C)cc(F)c3)c(N3CCC(N)CC3)c2-c2nc3ccc(Cl)cc3[nH]2)C(C)C)c(OC)c1)C(C)C (some centres unmarked) [Compound 198]", "pEC50": 8.46}

// next entry
Entry CC[C@H](C)[C@@H]([C@@H](CC(=O)N1CCC[C@H]1[C@H](OC)[C@@H](C)C(=O)N[C@H](C)[C@@H](O)c1ccccc1)OC)N(C)C(=O)[C@@H](NC(=O)[C@H](C(C)C)N(C)C(=O)OCc1ccc(NC(=O)[C@H](CCCNC(N)=O)NC(=O)[C@@H](NS(=O)(=O)C[C@H](C)NC(=O)CCOCCC(=O)NCCNc2ncc(-c3cc(C)cc(F)c3)c(N3CCC(N)CC3)c2-c2nc3ccc(Cl)cc3[nH]2)C(C)C)c(O[C@@H]2O[C@H](C(=O)N(C)CC(=O)O)[C@@H](O)[C@H](O)[C@H]2O)c1)C(C)C [Compound 220] : reported pEC50 = ?
8.51
